# Test system: MILI (PIWIL2) piRISC loaded with L1MC piRNA (26 nt);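 also: 1 nM active piRISC with 0.1 nM target library at 33 °C single turnover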
# Method Description: pre-steady-state target cleavage rate (min^-1); guide: L1MC piRNA 5'p-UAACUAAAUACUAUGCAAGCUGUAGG; MIWI and MILI are mouse PIWI proteins and EfPiwi is from a freshwater sponge; tags in brackets are library labels; higher = faster piRNA-guided slicing of the target
# Measurement Context: auxiliary factor: none (no GTSF1)
Quantity Kind: pre-steady-state target cleavage rate
Reply: number alone, nothing else.

{"Sequence Entry": "UCCUGGAACAGCUUGGAUAGUAAUUAGUUA", "pre-steady-state target cleavage rate": 0.00493}
{"Sequence Entry": "UCCUGGAUGAGCUUGCAUAGUAUUUAGUAA", "pre-steady-state target cleavage rate": 0.00773}
{"Sequence Entry": "UCCUCCUUCAGCUUGCAUAGUUUUUAGUUA", "pre-steady-state target cleavage rate": 0.00556}
{"Sequence Entry": "UCCUGGAUGUCCUUGCCUAGUAUUUAGUUA", "pre-steady-state target cleavage rate": 0.00452}
{"Sequence Entry": "UCCUGGUACAGCUUGCAUAGUAUGUUAGUUA", "pre-steady-state target cleavage rate": 0.00462}
{"Sequence Entry": "UCCUGCUACACCUUGCUUAGUAUUUAGUUA", "pre-steady-state target cleavage rate": 0.00572}
{"Sequence Entry": "UCCUGGAUGUCCUUGCAUAGAUUUUAGUUA", "pre-steady-state target cleavage rate": 0.00402}
{"Sequence Entry": "UCCUGGAACAGCUUGCAUAGUAUUUAGUCA", "pre-steady-state target cleavage rate": 0.00732}
{"Sequence Entry": "UCCUGGAUGUCGUUGCAUAGUUUUUAGUUA", "pre-steady-state target cleavage rate": 0.00595}
{"Sequence Entry": "UCCUCCUACAGCUUGUAUAGUAUUUAGUUA", "pre-steady-state target cleavage rate": 0.00822}

Exercise: Fill blank: measured pre-steady-state target cleavage rate of the sequence `UCCUCCUACAGCUUGCAUUGUAUUUAGUAA` is ____.
Solution: 0.00398

Exercise: Another sequence to check: `UCCUGGAUGUCGAUGCAUGGUAUUUAGUUA`
Solution: 0.00372
